Source: BindingDB's records for doi:10.1021/acs.jmedchem.1c00818

# experimental.details: Inhibition of DC-SIGN (unknown origin) expressed in human Jurkat cells assessed as inhibition of EBOV-pseudotyped virus infection measured after 48 hrs by luciferase assay
experimental.endpoint: pIC50
API: returns pIC50 as number; meaning -log10 of concentration in mol/L.

CO[C@H]1O[C@H](CO)[C@@H](O)[C@H](O)[C@@H]1O [methyl alpha-D-mannoside] has a reported pIC50 of 2.90
